Data credit: the supplement of paper PMC12494721

Tested on: Klebsiella aerogenes DSM 30053
Assay: fold change of Cadaverine concentration vs plate DMSO controls (fold change (ratio)); higher = more amine produced, active = hit call of the paper (significant change in both replicates, either direction)
Settings: incubation time: 27 h, anaerobic, 37 °C
Structures can show the parent of a compound that is named as a salt.
value_type: fold change of Cadaverine concentration
Please state the value as a number alone, without comment.

Look over these answered cases.
molecule	fold change of Cadaverine concentration
CC(C)(Oc1ccc(Cl)cc1)C(=O)O [Clofibric acid] (20 µM)	0.982
NS(=O)(=O)c1cc2c(cc1Cl)NC(C(Cl)Cl)NS2(=O)=O (stereo unspecified) [Trichlormethiazide] (20 µM)	0.984
NC(=O)[C@@H]1CCCN1C(=O)[C@H](Cc1c[nH]cn1)NC(=O)[C@@H]1CCC(=O)N1 [Thyrotropin-Releasing Hormone] (20 µM)	1

QUERY: Given the entry CO[C@@H]1[C@@H](O[C@@H]2O[C@H](C)[C@@H](O[C@H]3C[C@@](C)(O)[C@@H](O)[C@H](C)O3)[C@H](N(C)C)[C@H]2O)[C@@H](CC=O)C[C@@H](C)[C@@H](O[C@H]2CC[C@H](N(C)C)[C@@H](C)O2)/C=C/C=C/C[C@@H](C)OC(=O)C[C@H]1OC(C)=O [Acetyl spiramycin] (20 µM) , report its measured fold change of Cadaverine concentration.
RESULT: 1.03

QUERY: Given the entry CCCCCCCCc1c(CC)nc2ncnn2c1N (20 µM) , report its measured fold change of Cadaverine concentration.
RESULT: 1.01

QUERY: Given the entry CO/N=C1\CN(c2nc3c(cc2F)c(=O)c(C(=O)O)cn3C2CC2)CC1CN (stereo unspecified) [Gemifloxacin mesylate] (20 µM) , report its measured fold change of Cadaverine concentration.
RESULT: 0.992

---

Test system: Klebsiella aerogenes DSM 30053
Experiment: growth (OD595) fold change vs plate DMSO controls (fold change (ratio)); higher = more growth
Conditions: incubation time: 27 h, anaerobic, 37 °C
Counter-ions that a name gives are not always drawn.
Below, each entry is listed alongside its reported growth.
Please state the value as a number alone, without comment.

Look over these answered cases.
compound	growth
O=C1CC2(CCCC2)CC(=O)N1CCCCN1CCN(c2ncccn2)CC1 [Buspirone hydrochloride] (20 µM)	0.968
CCOc1ccc2nc3cc(N)ccc3c(N)c2c1 [Ethacridine lactate] (20 µM)	0.974
CCc1nn(CCCN2CCN(c3cccc(Cl)c3)CC2)c(=O)n1CCOc1ccccc1 [Nefazodone hydrochloride] (20 µM)	1.17
CN(C)CCn1nnnc1SCC1=C(C(=O)O)N2C(=O)[C@@H](NC(=O)Cc3csc(N)n3)[C@H]2SC1 [Cefotiam hydrochloride] (20 µM)	1.05
CSc1nc2cc(Cl)c(Oc3cccc(Cl)c3Cl)cc2[nH]1 [Triclabendazole] (20 µM)	0.985

QUERY: Given the entry NS(=O)(=O)c1cc2c(cc1C(F)(F)F)NC(Cc1ccccc1)NS2(=O)=O (centres undefined) [Bendroflumethiazide] (20 µM) , report its measured growth.
RESULT: 1.06

---

Test system: Klebsiella aerogenes DSM 30053
Assay: growth (OD595) fold change vs plate DMSO controls (fold change (ratio)); higher = more growth
Details: incubation time: 27 h, anaerobic, 37 °C
Counter-ions that a name gives are not always drawn.
Below, each entry is listed alongside its reported growth.

compound	system_tested	growth
CCOC(=O)c1ccc(N)cc1 [Benzocaine] (20 µM)	Klebsiella aerogenes DSM 30053	1.08
C[C@]12CC[C@H]3[C@@H](CCC4=CC(=O)CC[C@@]43C)[C@@H]1CC[C@@H]2C(=O)CO [Deoxycorticosterone] (20 µM)	Klebsiella aerogenes DSM 30053	1.02
CCCc1nc2c(C)cc(-c3nc4ccccc4n3C)cc2n1Cc1ccc(-c2ccccc2C(=O)O)cc1 [Telmisartan] (20 µM)	Klebsiella aerogenes DSM 30053	1.02
CN1CCN(C2=Nc3cc(Cl)ccc3Nc3ccccc32)CC1 [Clozapine] (20 µM)	Klebsiella aerogenes DSM 30053	0.984
O=C(O)c1cc(=O)c2ccccc2o1 [Chromocarb] (20 µM)	Klebsiella aerogenes DSM 30053	0.99
CNC1(C)C2CCC(C2)C1(C)C (stereo not drawn) [Mecamylamine hydrochloride] (20 µM)	Klebsiella aerogenes DSM 30053	1.02
COc1cc(NS(=O)(=O)c2ccc(N)cc2)ncn1 [Sulfamonomethoxine] (20 µM)	Klebsiella aerogenes DSM 30053	0.978

Please find the next compound below.
QUERY: Given the entry CCC(C)(C)C(=O)O[C@H]1C[C@@H](C)C=C2C=C[C@H](C)[C@H](CC[C@@H]3C[C@@H](O)CC(=O)O3)[C@H]21 [Simvastatin] (20 µM) , report its measured growth.
RESULT: 1.25
